# Test system: Oryctolagus cuniculus
# Assay method text: Distribution of compound into VLDL lipoprotein fraction of WHHL Rabbit's plasma after oral administration
# Format: ADME, organism-based
# Experimental parameters: in vivo
Parameter: VLDL

Use these answered entries as a reference point.
1) CCCCC1(CCCC)Cc2c(cc(C(C)(C)C)c(O)c2C(C)(C)C)O1 :: 57.07 µg/mg
2) CC(C)CCC1(CCC(C)C)Cc2c(cc(C(C)(C)C)c(O)c2C(C)(C)C)O1 :: 25.64 µg/mg
3) CCCCCC1(CCCCC)Cc2c(cc(C(C)(C)C)c(O)c2C(C)(C)C)O1 :: 119.25 µg/mg
4) CC(C)(Sc1cc(C(C)(C)C)c(O)c(C(C)(C)C)c1)Sc1cc(C(C)(C)C)c(O)c(C(C)(C)C)c1 :: 5.48 µg/mg
5) CCCCCCCCC1(CCCCCCCC)Cc2c(cc(C(C)(C)C)c(O)c2C(C)(C)C)O1 :: 1.16 µg/mg

Turning to the following compound.
# input Item under review: CC(C)(C)c1cc2c(c(C(C)(C)C)c1O)CC(C(C)(C)C)O2 (stereo unspecified) . Reported VLDL?
# output 27.69 µg/mg

====

# System: Seed linoleate 13S-lipoxygenase-1 (Glycine max)
# Assay method text: Inhibition of LDL oxidation induced by soybean lipoxygenase (SLO) at 5 uM expressed as % control.
# Assay type: functional
Recorded LDL oxidation remaining, % of control for the following compounds

Consider the worked cases shown below.
1. CCCCCC1(CCCCC)Cc2c(cc(C(C)(C)C)c(O)c2C(C)(C)C)O1 :: 4.6%
2. CC(C)(Sc1cc(C(C)(C)C)c(O)c(C(C)(C)C)c1)Sc1cc(C(C)(C)C)c(O)c(C(C)(C)C)c1 :: 14%
3. CCCCCCC1(CCCCCC)Cc2c(cc(C(C)(C)C)c(O)c2C(C)(C)C)O1 :: 2.7%
4. CCCCCCCCC1(CCCCCCCC)Cc2c(cc(C(C)(C)C)c(O)c2C(C)(C)C)O1 :: 11.3%
5. CCC1(CC)Cc2c(cc(C(C)(C)C)c(O)c2C(C)(C)C)O1 :: 1.3%
6. CC(C)(C)c1cc2c(c(C(C)(C)C)c1O)CC1(CCCCCCC1)O2 :: 9%
7. CC1(C)Cc2c(cc(C(C)(C)C)c(O)c2C(C)(C)C)O1 :: 1.8%
8. CC(C)(C)c1cc2c(c(C(C)(C)C)c1O)CC1(CCCC1)O2 :: 0.4%

# input Fill blank: measured LDL oxidation remaining, % of control of the compound "CCCC1(CCC)Cc2c(cc(C(C)(C)C)c(O)c2C(C)(C)C)O1" is ____.
# output 0%

# input Data request, read-out LDL oxidation remaining, % of control, for "CC(C)(C)c1cc2c(c(C(C)(C)C)c1O)CCO2"
# output 6.9%

====

Property: LDL oxidation remaining, % of control; scope: individual compounds
# System: Seed linoleate 13S-lipoxygenase-1 (Glycine max) (UniProt P08170)
# Assay method text: Inhibition of LDL oxidation induced by soybean lipoxygenase (SLO) at 0.5 uM expressed as % control.
# Type: functional
Unit % implied. Number only.

Please review the entries below; each comes with its answer.
1. CCCC1(CCC)Cc2c(cc(C(C)(C)C)c(O)c2C(C)(C)C)O1 :: 33.3
2. CCCCCCCC1(CCCCCCC)Cc2c(cc(C(C)(C)C)c(O)c2C(C)(C)C)O1 :: 88.4
3. CCCCCC1(CCCCC)Cc2c(cc(C(C)(C)C)c(O)c2C(C)(C)C)O1 :: 60.9
4. CC(C)CCC1(CCC(C)C)Cc2c(cc(C(C)(C)C)c(O)c2C(C)(C)C)O1 :: 91.5

# input Name the reported LDL oxidation remaining, % of control value associated with the compound "CCCCC1(CCCC)Cc2c(cc(C(C)(C)C)c(O)c2C(C)(C)C)O1"
# output 51.5

# input For the compound "CC(C)(Sc1cc(C(C)(C)C)c(O)c(C(C)(C)C)c1)Sc1cc(C(C)(C)C)c(O)c(C(C)(C)C)c1" , what LDL oxidation remaining, % of control is on record?
# output 73.9

# input Which LDL oxidation remaining, % of control reading was recorded for the compound "CC(C)(C)c1cc2c(c(C(C)(C)C)c1O)CCO2" ?
# output 36

# input Look up LDL oxidation remaining, % of control for this compound: "CC(C)(C)c1cc2c(c(C(C)(C)C)c1O)CC1(CCCC1)O2"
# output 46.2

====

# System: Seed linoleate 13S-lipoxygenase-1 (Glycine max) (UniProt P08170)
# Assay method text: Inhibition of LDL oxidation induced by soybean lipoxygenase (SLO) at 5 uM expressed as % control.
# Assay type: functional
LDL oxidation remaining, % of control values, listed per item
Enter your answer as a number in %; do not include the unit.

# input Entry "CC(C)CCC1(CCC(C)C)Cc2c(cc(C(C)(C)C)c(O)c2C(C)(C)C)O1" : reported LDL oxidation remaining, % of control = ?
# output 7.1

# input // returns reported LDL oxidation remaining, % of control for input "CC(C)(C)c1cc2c(c(C(C)(C)C)c1O)CC1(CCOCC1)O2"
# output 4.7

# input I'd like to know its LDL oxidation remaining, % of control. The compound in question is CC(C)(C)c1cc2c(c(C(C)(C)C)c1O)CC(C(C)(C)C)O2 (stereo not drawn)
# output 1.8

====

# System: Oryctolagus cuniculus
# Assay method text: Distribution of compound into LDL lipoprotein fraction of WHHL Rabbit's plasma after oral administration
# Format: ADME, organism-based
# Experimental parameters: in vivo
Recorded LDL values for a group of compounds are listed next.
Answer in µg/mg, number only, no unit symbol.

Example cases with answers are listed next.
1. CC(C)(Sc1cc(C(C)(C)C)c(O)c(C(C)(C)C)c1)Sc1cc(C(C)(C)C)c(O)c(C(C)(C)C)c1 :: 2.57
2. CCCCCCCCC1(CCCCCCCC)Cc2c(cc(C(C)(C)C)c(O)c2C(C)(C)C)O1 :: 0.36

# input What does the data say about its LDL? Entry: "CC(C)CCC1(CCC(C)C)Cc2c(cc(C(C)(C)C)c(O)c2C(C)(C)C)O1"
# output 9.34

# input Look up LDL: CC(C)(C)c1cc2c(c(C(C)(C)C)c1O)CC(C(C)(C)C)O2 (stereo unspecified)
# output 5.08

# input Could you share which LDL value was measured for "CCCCCC1(CCCCC)Cc2c(cc(C(C)(C)C)c(O)c2C(C)(C)C)O1" ?
# output 28.6

# input Return reported LDL; argument: "CCCCC1(CCCC)Cc2c(cc(C(C)(C)C)c(O)c2C(C)(C)C)O1"
# output 11.04

====

# Assay method text: Inhibition of MCLA chemiluminescence generated by autoxidation of linoleic acid
Parameter: pIC50
Lab note — pIC50 values are minus log10 of concentrations in M.

1) CC(C)(C)c1cc2c(c(C(C)(C)C)c1O)CC1(CCCC1)O2 :: 5.18

# input Data request, read-out pIC50, for "CC(C)(C)c1cc2c(c(C(C)(C)C)c1O)CC(Cc1ccccc1)(Cc1ccccc1)O2"
# output 4.97

# input compound: CCCCCC1(CCCCC)Cc2c(cc(C(C)(C)C)c(O)c2C(C)(C)C)O1 [BO-653] ; wanted: its pIC50
# output 5.34

# input Item under review: "CC(C)(C)c1cc2c(c(C(C)(C)C)c1O)CC1(CCCCCCC1)O2" . Reported pIC50?
# output 5.03

====

# System: Seed linoleate 13S-lipoxygenase-1 (Glycine max)
# Sequence (whole entry): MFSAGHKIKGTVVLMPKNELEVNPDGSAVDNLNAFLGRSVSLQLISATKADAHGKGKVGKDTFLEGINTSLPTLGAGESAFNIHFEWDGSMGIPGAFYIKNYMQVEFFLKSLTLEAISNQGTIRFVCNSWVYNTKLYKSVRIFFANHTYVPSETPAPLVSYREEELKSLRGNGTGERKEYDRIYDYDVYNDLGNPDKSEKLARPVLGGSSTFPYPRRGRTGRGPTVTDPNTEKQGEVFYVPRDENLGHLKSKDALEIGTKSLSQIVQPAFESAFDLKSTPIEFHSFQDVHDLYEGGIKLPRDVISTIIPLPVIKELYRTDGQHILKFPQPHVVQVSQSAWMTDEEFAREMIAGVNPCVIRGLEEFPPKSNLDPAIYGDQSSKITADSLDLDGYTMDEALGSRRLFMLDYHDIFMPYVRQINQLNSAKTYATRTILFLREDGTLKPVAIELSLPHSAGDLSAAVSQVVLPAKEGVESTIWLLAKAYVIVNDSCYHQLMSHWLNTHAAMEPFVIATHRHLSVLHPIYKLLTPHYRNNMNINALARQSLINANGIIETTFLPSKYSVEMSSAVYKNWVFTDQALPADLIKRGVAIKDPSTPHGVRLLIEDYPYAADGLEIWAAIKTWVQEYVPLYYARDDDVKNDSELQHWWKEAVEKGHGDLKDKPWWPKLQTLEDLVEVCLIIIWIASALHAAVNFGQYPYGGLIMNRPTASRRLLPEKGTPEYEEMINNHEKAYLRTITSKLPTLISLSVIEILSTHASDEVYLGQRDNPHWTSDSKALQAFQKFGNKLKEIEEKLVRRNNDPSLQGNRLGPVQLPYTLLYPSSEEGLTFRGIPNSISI
# Assay method text: Inhibition of LDL oxidation induced by soybean lipoxygenase (SLO) at 0.5 uM expressed as % control.
# Type: functional
Form field: LDL oxidation remaining, % of control (one value per entry).
Could you give the number and then its unit, please?

1) CC(C)(C)c1cc2c(c(C(C)(C)C)c1O)CC1(CCCCCCC1)O2 :: 97.2%
2) CC(C)(C)c1cc2c(c(C(C)(C)C)c1O)CC(Cc1ccccc1)(Cc1ccccc1)O2 :: 63.5%
3) CCCCCCC1(CCCCCC)Cc2c(cc(C(C)(C)C)c(O)c2C(C)(C)C)O1 :: 75.5%
4) CC(C)(C)c1cc2c(c(C(C)(C)C)c1O)CC1(CCCCCC1)O2 :: 93.4%
5) CC1(C)Cc2c(cc(C(C)(C)C)c(O)c2C(C)(C)C)O1 :: 39.8%

# input Which value of LDL oxidation remaining, % of control has been reported for "CCC1(CC)Cc2c(cc(C(C)(C)C)c(O)c2C(C)(C)C)O1" in the records?
# output 9.4%

Measured values drawn from ChEMBL document CHEMBL1145837 for this set.
